target: human recombinant H-PGDS (Homo sapiens); experiment: Fluoresecence Intensity h-PGDSTBA Enzyme Assay; conditions: IC50, 5.0 μM PGH2, 2.5 mM L-Glutathione, 10 min preincubation, 4-parameter fit, highest inhibitor concentration typically 1 μM
Sequence (O60760 whole entry): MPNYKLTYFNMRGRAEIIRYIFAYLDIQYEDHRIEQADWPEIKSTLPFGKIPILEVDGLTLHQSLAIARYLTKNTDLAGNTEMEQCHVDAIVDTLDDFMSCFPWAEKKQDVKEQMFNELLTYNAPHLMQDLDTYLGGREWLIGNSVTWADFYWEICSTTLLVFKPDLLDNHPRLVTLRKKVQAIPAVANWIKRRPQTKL
pIC50: −log10 of the molar value.
Param threshold (8) applies to pIC50; output T when value >= threshold, F when value < threshold.

| Molecule | Answer Label |
| --- | --- |
| O=C(NC1CCN(CC2CCCC2)CC1)c1cnc(-c2cccc(F)c2)nc1 | T |
| Cc1cc(=O)[nH]c(N2CCC(NC(=O)c3cnc(-c4cccc(F)c4)nc3)CC2)n1 | T |
| Cc1nc(-c2ccccc2)ncc1C(=O)NC1CCN(C(C)C)CC1 | F |
| O=C(NC1CN(c2cnc3ccccc3n2)C1)c1cnc(-c2cccc(F)c2)nc1 | T |

Next:
Check this molecule for pIC50 at or above 8: `O=C(NC1CCN(CC(F)(F)F)CC1)c1cnc(-c2cccc(F)c2)nc1`
T
